methodNotes: Determination of the brain-to-plasma ratio after intraperitoneal administration (plasma and brain homogenate levels by LC-MS/MS)
Format: in vivo, male CD-1 mice
testContext: male, CD-1, mouse, brain/plasma, ip, 50 mg/kg, 1.0 hr post dose, individual mouse, read-out: B:P Ratio
measurementLabel: Kp at 1 h

Exercise: What value of Kp at 1 h has been reported for the following compound? COCCN(C)C(=O)c1cc(C(=O)N(C)CCOC)cc(C(=O)N(C)CCOC)c1
Solution: 0.04

###

methodNotes: Determination of the brain-to-plasma ratio after intraperitoneal administration (plasma and brain homogenate levels by LC-MS/MS)
Format: in vivo, male CD-1 mice
testContext: male, CD-1, mouse, plasma, ip, 50 mg/kg, 1.0 hr post dose, individual mouse, read-out: Plasma Conc
measurementLabel: concentration at 1 h (ng/mL)
Your answer should be a plain number; it is taken to be in ng/mL.

Exercise: Using the record for COCCN(C)C(=O)c1cc(C(=O)N(C)CCOC)cc(C(=O)N(C)CCOC)c1 , report its concentration at 1 h.
Solution: 2770
